Each recorded value in this set is attributed to ChEMBL document CHEMBL3232734.

So I've got a bunch of molecules here, and I need their t1/2 values.
Assay: Prodrug activation assessed as GSH reactivity in aqueous phosphate buffer at pH 7.4 by UV-Visible spectrophotometer analysis
Type: physicochemical
Answers are plain numbers, in min.

Solved entries (count: 3):
CN(C)/[N+]([O-])=N\Oc1cc(O/N=[N+](\[O-])N2CCN(C(=O)c3cc(Cc4n[nH]c(=O)c5ccccc45)ccc3F)CC2)c([N+](=O)[O-])cc1[N+](=O)[O-] :: 16
CNc1ccc(C(=O)Oc2cc(O/N=[N+](\[O-])N(C)C)c([N+](=O)[O-])cc2[N+](=O)[O-])cc1 :: 2
O=C(c1cc(Cc2n[nH]c(=O)c3ccccc23)ccc1F)N1CCN(/[N+]([O-])=N/Oc2ccc([N+](=O)[O-])cc2[N+](=O)[O-])CC1 :: 11.6

Turning to the following molecule.
*Q* Any idea what t1/2 was measured for "O=C(c1cccc(Cc2n[nH]c(=O)c3ccccc23)c1)N1CCN(/[N+]([O-])=N/Oc2ccc([N+](=O)[O-])cc2[N+](=O)[O-])CC1" ?
*A* 11.2
